pIC50: recorded values
# Tested on: P. falciparum 3D7 growth, pLDH absorbance
# Method Notes: blood-stage malaria parasite growth potency – strain 3D7, dose response (AID 2305)
Expect pIC50 as a plain number equal to -log10 of the molar concentration.

{"columns": ["Compound", "Tested System", "pIC50"],
 "data": [
  ["O=[N+]([O-])c1ccc(-c2nc3ccc(C4=N[C@H]5CCCC[C@H]5N4)cc3[nH]2)cc1", "P. falciparum 3D7 growth, pLDH absorbance", 6.16],
  ["CCCCCCc1cnc2nc(N)nc(N)c2c1C", "P. falciparum 3D7 growth, pLDH absorbance", 6.72],
  ["COCCNCc1cccc(-c2ccc3nccc(Nc4cc(O)ccc4C)c3c2)c1", "P. falciparum 3D7 growth, pLDH absorbance", 6.12]
]}

Task item: Give its pIC50 value. Item: CCCCCCCN1CC[C@H](CC(=O)Nc2ccnc3ccc(OC)cc23)[C@@H](CC)C1
Reply: 6.23

Task item: Repeat with Cn1cncc1C(=O)Nc1cccc(-c2ccc(-c3nc4ccc(F)cc4[nH]3)cc2)c1
Reply: 6.14

Task item: Repeat with CC(Cc1ccc(SC(C)(C)C)cc1)NCC(O)c1cccc(Cl)c1 (centres undefined)
Reply: 6.49

Task item: Repeat with O=C(Nc1ccc(Cl)cc1)Nc1cccc(-c2cccc(-c3nc4ccccc4[nH]3)c2)c1
Reply: 6.89

Task item: Repeat with CCN(CC)CCN(Cc1ccc(-c2ccc(C(F)(F)F)cc2)cc1)C(=O)Cn1c(CCc2c(F)cc(F)cc2F)nc(=O)c2ccccc21
Reply: 5.98

Task item: Repeat with CCS[C@@H]1O[C@H](COC(=O)c2ccccc2)[C@H](OC(=O)c2ccccc2)[C@H](OC(=O)c2ccccc2)[C@H]1OC(=O)c1ccccc1
Reply: 6.09

---

# Test system: P. falciparum 3D7 growth, pLDH absorbance
# Method Notes: blood-stage malaria parasite growth potency – strain 3D7, dose response (AID 2305)
Observed Property: IC50 (µM)
# number only, unit µM dropped from output

{"columns": ["Compound", "Tested System", "IC50 / µM"],
 "data": [
  ["N#Cc1ccc(CN2CCCN(Cc3cccc(NC(=O)c4ccc(Cl)c(Cl)c4)c3)CC2)cc1", "P. falciparum 3D7 growth, pLDH absorbance", 0.85],
  ["COc1cc(C)cc(CN2CCC(Cc3ccccc3)CC2)c1O", "P. falciparum 3D7 growth, pLDH absorbance", 1.02],
  ["Fc1cc(Cl)ccc1Nc1ccnc2cc(-c3ccc(CN4CCCCC4)o3)ccc12", "P. falciparum 3D7 growth, pLDH absorbance", 0.34]
]}

Task item: Give its IC50 value. Item: CC(=O)Nc1ccc(CN2CCN(C(c3ccc(F)cc3)c3ccc(F)cc3)CC2)cc1
Reply: 0.83

Task item: Repeat with Cc1cc(Nc2cc(Cl)cc(Cl)c2)nc(N)n1
Reply: 1.14

Task item: Repeat with O=C(/C=C/c1ccc(Cl)cc1Cl)NC1CCC(CN2CCC(c3c[nH]c4ccccc34)CC2)CC1 (stereo not given)
Reply: 0.8

Task item: Repeat with O=C(O)C1Cc2c([nH]c3ccccc23)C(c2ccc(Cl)cc2Cl)N1 (stereo not given)
Reply: 0.95

Task item: Repeat with C=CCc1cc(SC)ccc1Oc1ccc(N)cc1
Reply: 0.74

Task item: Repeat with CO/C(=C\C=C\c1cc2cc(Cl)c(Cl)cc2[nH]1)C(=O)N[C@H]1CN2CCC1CC2
Reply: 1.21

Task item: Repeat with CC(C)CCN(Cc1cncn1Cc1cccc(Cl)c1)C(=O)c1cncc(-c2ccccc2)c1
Reply: 0.76

Task item: Repeat with CC(=O)Nc1ccc(OCCN(CC(C)(C)C)c2ccc(C#N)c(C(F)(F)F)c2)c(Cl)c1
Reply: 0.49

Task item: Repeat with COc1ccc(NC(=O)c2ccc(-c3cc(NC(=O)c4ccnc(N5CCCC5)c4)ccc3C)s2)cc1N1CCN(C)CC1
Reply: 0.25

Task item: Repeat with O=C(Nc1ccc(C(F)(F)F)cc1)c1cccc(S(=O)(=O)NC2CCN(Cc3ccccc3)C2)c1 (stereo not given)
Reply: 1.05

Task item: Repeat with Cc1cc(N[C@@H](Cc2ccccc2)C(=O)NCc2cccs2)nc(NCCc2cccnc2)n1
Reply: 1.01

Task item: Repeat with CNCCCCCCc1ccc(CC(C)NCC(O)c2cccc(Cl)c2)cc1 (stereo not given)
Reply: 0.85

Task item: Repeat with COc1cccc(-c2cnc(N)c(-c3nc4cc(Cl)c(F)cc4[nH]3)c2)c1
Reply: 0.54

Task item: Repeat with O=C1COc2ccc(S(=O)(=O)N3CCC[C@@H]3CCN3CCC(c4c[nH]c5cnccc45)CC3)cc2N1
Reply: 0.86

Task item: Repeat with CCC(C)CN1CCN(c2cc(NC(=O)c3cccs3)ccn2)C(C)C1 (stereo not given)
Reply: 1

Task item: Repeat with O=C(/C=C/c1ccc(Cl)c(Cl)c1)NCCCCCN1CCCC(C(=O)Nc2ccc(Cl)c(Cl)c2)C1 (stereo not given)
Reply: 0.78

Task item: Repeat with Cc1ccc(NC(=O)c2cc(Br)cc(N3CCC(N(C)C)CC3)c2)cc1F
Reply: 0.84

---

# Tested on: P. falciparum 3D7 growth, pLDH absorbance
# Method Notes: blood-stage malaria parasite growth potency – strain 3D7, dose response (AID 2305)
Observed Property: pIC50
Expect pIC50 as a plain number equal to -log10 of the molar concentration.

{"columns": ["Molecule", "Tested System", "Observed Property", "Endpoint Result"],
 "data": [
  ["O=C(c1cccs1)N(Cc1cccc(-c2ccc(CNCCc3ccccc3)cc2)c1)C1CCN(Cc2ccccc2)CC1", "P. falciparum 3D7 growth, pLDH absorbance", "pIC50", 6.07],
  ["CCc1cc2c(Sc3nnc(N)s3)ncnc2s1", "P. falciparum 3D7 growth, pLDH absorbance", "pIC50", 6.18],
  ["COc1ccc2nc(C)cc(NN=Cc3ccncc3)c2c1", "P. falciparum 3D7 growth, pLDH absorbance", "pIC50", 6.15],
  ["O=S(=O)(NCCN1CCCC1)c1ccc(-c2ccccc2CNC2Cc3ccccc3C2)cc1", "P. falciparum 3D7 growth, pLDH absorbance", "pIC50", 6.07],
  ["COc1ccc(-c2c(-c3ccc(OCc4ccccc4)cc3O)n[nH]c2C(F)(F)F)cc1", "P. falciparum 3D7 growth, pLDH absorbance", "pIC50", 5.93]
]}

// next entry
Task item: Give its pIC50 value. Item: CCc1cn2c3c(cc(C(=O)N[C@@H](Cc4ccccc4)[C@H](O)CNC(C)C)cc13)N(C)S(=O)(=O)C2
Reply: 6.49

---

# Test system: P. falciparum 3D7 growth, pLDH absorbance
# Method Notes: blood-stage malaria parasite growth potency – strain 3D7, dose response (AID 2305)
log10 of IC50: recorded values
Form field - Quantity: IC50; Unit: nM; Scale: log10

Some compounds with recorded log10 of IC50:
{"columns": ["Compound", "Observed Property", "Endpoint Result"],
 "data": [
  ["CCOc1ccc(C=CC(=O)Nc2ccc3nc(N4CCOCC4)cc(C)c3c2)cc1OC", "log10 of IC50", 2.95],
  ["COc1ccc(NCCCNc2ccnc3ccccc23)cc1", "log10 of IC50", 2.99],
  ["COc1cc2c(c(Cl)c1OC)CCN(Cc1ccccc1)CC2c1ccc(C(N)=O)cc1 (stereo not given)", "log10 of IC50", 2.93],
  ["COCCn1c(SC(C)C(=O)Nc2cc(C(F)(F)F)ccc2Cl)nc2ccccc2c1=O (stereo not given)", "log10 of IC50", 2.80],
  ["CCC(C)CN1C(=O)C(c2ccccc2)(c2ccccc2)N=C1N (stereo not given)", "log10 of IC50", 2.85],
  ["COc1ccc(CNC(=O)c2cnc3c(O)cccc3c2Nc2cccc(NC(=O)c3ccc(-c4ccccc4)cc3)c2)cc1", "log10 of IC50", 2.97],
  ["N#Cc1ccc(CNCCCCCCCNCc2ccc(-c3ccccc3)cc2)cc1", "log10 of IC50", 2.99],
  ["Cc1cc(=O)[nH]c(NC#N)n1", "log10 of IC50", 2.23],
  ["COc1cc(OC)cc(C(=O)Nc2cccc(-c3cn4ccc(C)cc4n3)c2)c1", "log10 of IC50", 3.00],
  ["COc1cc2nc(N3CCC(CNC(=O)c4ccc(-c5ccc(C#N)cc5)cc4)CC3)nc(N)c2cc1OC", "log10 of IC50", 2.90]
]}

Task item: Give its log10 of IC50 value. Item: O=C(/C=C/c1ccc(Cl)cc1)NCCCCCN1CCCN(C(=O)Nc2ccc(Cl)c(C(F)(F)F)c2)CC1
Reply: 2.96

Task item: Repeat with CCCCc1cc(NCc2ccncc2)nc(Nc2ccccc2)n1
Reply: 2.92

---

IC50: recorded values
# Test system: P. falciparum 3D7 growth, pLDH absorbance
# Method Notes: blood-stage malaria parasite growth potency – strain 3D7, dose response (AID 2305)
# number only, unit nM dropped from output

Some molecules with recorded IC50:
{"columns": ["Structure Smiles", "Tested System", "Observed Property", "Output Unit", "Endpoint Result"],
 "data": [
  ["CCn1ccc2c(N3CCCCS3(=O)=O)cc(C(=O)N[C@@H](Cc3ccccc3)[C@H](O)CNC3CCCCC3)cc21", "P. falciparum 3D7 growth, pLDH absorbance", "IC50", "nM", 120],
  ["Cc1cccc2[nH]c(-c3ccc(-c4cccc(CNCc5cnn(-c6ccccc6)n5)c4)s3)nc12", "P. falciparum 3D7 growth, pLDH absorbance", "IC50", "nM", 550],
  ["COc1ccc(Nc2nc(NN=Cc3ccc(-c4ccc([N+](=O)[O-])cc4)o3)nc(Nc3ccccc3)n2)cc1", "P. falciparum 3D7 growth, pLDH absorbance", "IC50", "nM", 760],
  ["CN(C)CCCOc1ccccc1CN1CC[C@H](NC(=O)c2ccc(Cl)c(Cl)c2)C1", "P. falciparum 3D7 growth, pLDH absorbance", "IC50", "nM", 1110]
]}

// next entry
Task item: Which IC50 is reported with P. falciparum 3D7 growth, pLDH absorbance for this entry: Cc1cc(N)nc2ccc(-c3ccc(CN)cc3)cc12 ?
Reply: 620
